Test system: IGROV1 ovarian
PROTOCOL_DETAILS: NCI-60 one-dose screen, 48 h
APPLIED_CONDITIONS: 10 µM unless noted
About 83,000 compounds went through this panel and 20% of them were active in at least one assay; those are over-represented in the sample as a whole. Activity calls are given as the source filed them. Rule for the calls: active = growth percent below 10; inactive = the rest.
One label from this list, please: 1 for active, 0 for inactive

Nc1ccc(Nc2ncnc3sc4c(c23)CCN(Cc2ccccc2)C4)cc1 ... 0
COc1cc2cc(Oc3ccc(NC(=O)c4cc(C(F)(F)F)cc(C(F)(F)F)c4)cc3)c(C)nc2cc1OCCN1CCOCC1 ... 0
CCNCCOc1ccc(/C(=C(/CC)c2ccc(Cl)cc2)c2ccc(OCCCN(C)C)cc2)cc1 ... 1

Call for entry CCOC(=O)c1c(NCC(=O)Nc2cccc([N+](=O)[O-])c2)sc(C(C)=O)c1C :
0

====

System: COLO 205 colon
PROTOCOL_DETAILS: NCI-60 one-dose screen, 48 h (100 = growth as untreated, 0 = no growth, -100 = all killed)
APPLIED_CONDITIONS: 10 µM unless noted
This is part of a sample that, as a whole, favours compounds with a hit. Of some 83,000 tested, about 20% had one in any assay.
REPORTED_METRIC: growth (%)
# unit: % | format: bare number

Look over these answered cases.
C/C(=C(/C)C1CC1CCNC1CCC(NC(=O)OC(C)(C)C)CC1)c1ccccc1 (stereo not given) ... -56
O=C(/C=C/C=C/c1csc(Br)n1)NO ... 110
COc1ccc2[nH]cc(-c3nn4cc(-c5ccncc5)nc4s3)c2c1 ... 47
NS(=O)(=O)c1cccc(Nc2nc(SCC(=O)c3ccc(Cl)cc3)nc3c2CCC3)c1 ... 109
CCCc1cc2cc(-n3nc(CC)c4c3CC(C)(C)CC4=O)cc(NC3CCC(O)CC3)c2c(=O)[nH]1 (stereo not given) ... 8.47

Endpoint output: growth of O=C(/C=C/c1ccc(F)cc1)Nc1cccc2cccnc12 . Value?
114

====

System: MOLT-4 leukemia
PROTOCOL_DETAILS: NCI-60 one-dose screen, 48 h (100 = growth as untreated, 0 = no growth, -100 = all killed)
APPLIED_CONDITIONS: 10 µM unless noted
Method: Growth inhibition of the MOLT-4 human tumor cell line is measured as a screen for anti-cancer activity. Cells are grown in 96 well plates and exposed to the test compound for 48 hours. Compounds are tested at a single concentration, which is 10^-5 M for most compounds. The reported endpoint is percent growth (GI% or GIPRCNT), where numbers from 0 - 100% represent growth inhibition, and numbers from -100% - 0 represent cell death. For example, a value of 40 represents 60% growth inhibition. […]
About 83,000 compounds went through this panel and 20% of them were active in at least one assay; those are over-represented in the sample as a whole.
Examples of molecules with documented growth follow.
# unit: % | format: bare number

Look over these answered cases.
C#CCOc1ccccc1/C=N/Nc1nc(-c2ccc(Cl)cc2)cs1 ... 90.8
NS(=O)(=O)c1cccc(Nc2nc(SCC(=O)c3ccc(Cl)cc3)nc3c2CCC3)c1 ... 105
COc1ccc(/C=N/NC(=O)c2c(N)nn(C)c2Nc2ccccc2)cc1Oc1ccccc1 ... 90.4
C#C[C@]1(O)CC[C@H]2[C@@H]3CC=C4c5sc(Nc6ncccc6C)nc5CC[C@]4(C)[C@H]3CC[C@@]21C ... -30.3
CCCN1C=C/C(=C\C(=O)n2ccc3ccccc32)c2ccccc21 ... 76.5
CN1CCN(Cc2ccc(NC(=O)c3cncc(C#Cc4cnc5ccc(OCCCS(C)(=O)=O)nn45)c3)cc2C(F)(F)F)CC1 ... 2.88
Cc1cc(C)cc(NC2=C(Cl)C(=O)c3nc(C)ccc3C2=O)c1 ... 24.6
CCOC(=O)c1cccc(NC2=C(Cl)C(=O)c3nc(C)ccc3C2=O)c1 ... 48.5

Alright, here's another molecule for you.
Endpoint output: growth of Nc1cc(C(=O)N/N=C\c2ccc(OC(F)F)c(OC3CCCC3)c2)nn1CC(O)c1ccccc1 (centres undefined) . Value?
78.5
